Parameter: RP-LC retention time. Scope: all listed entries.
experiment: gradient 5% acetonitrile 3 min, to 50% in 2 min, to 85% in 15 min, held 3 min, 100 µL/min; details: column: Zorbax Extend-C18 2.1 x 50 mm; eluents: water / acetonitrile, 0.1% formic acid
Respond numerically; units are s and should not be typed.

[[record]]
structure_notation = "Cc1ccccc1S(=O)(=O)N1CCC2(CC1)NCCN=C2NCc1cc(F)cc(F)c1"
measurement_label = "RP-LC retention time"
measured = 730


Memo: CCOc1ccc(S(=O)(=O)N2CC=C(c3cn(C(C)C)c4ncccc34)CC2)cc1 , reported RP-LC retention time: 645

Memo: COc1cccc(C(=O)N2CCC(c3cc(N)on3)CC2)c1OC , reported RP-LC retention time: 639

Memo: COc1ccc2[nH]cc(CCNC(=O)c3cnn(-c4ccc(Cl)cc4)c3C3CCNCC3)c2c1 , reported RP-LC retention time: 694

Memo: Cc1ccc(Cl)cc1N1CCN(C(=O)C2CCN(c3ncnc4c3oc3ccccc34)CC2)CC1 , reported RP-LC retention time: 1060

Memo: CCn1nccc1C(=O)NCCn1c(=O)n(Cc2ccc(F)cc2)c2cccnc21 , reported RP-LC retention time: 729

Memo: Cc1csc(-c2cc(S(=O)(=O)NC(C)(C)C)cn2CC(=O)N2CCCCC2)n1 , reported RP-LC retention time: 926

Memo: CCN1CCN(CCNC(=O)c2sc3cc(Cl)ccc3c2OC)CC1 , reported RP-LC retention time: 636

Memo: COCCn1nc2n(c1=O)CCC1(CC2)CCN(C(=O)C2CC=CC2)CC1 , reported RP-LC retention time: 658
